Where do these numbers come from? They come from paper PMC9913425.

- Test system: Jurkat cells
- Experimental protocol: Apoptosis/necrosis induction (Annexin V Alexa Fluor488, 7AAD staining)
- Assay type: cell-based
- Experimental setup: compound at IC50 concentration, incubation 2 h
- Description: Multiparametric evaluation of marker molecules, along with the detection of damage to the mitochondrial membrane, makes it possible to clearly determine the type of cell death. […] Normal cells with intact mitochondrial membranes have high MitoSense Red fluorescence, while cells with decoupled oxidation and phosphorylation have much lower fluorescence. […]
Apoptosis (%) Necrosis by entry:
Unit % implied. Number only.

Here is how some compounds turned out for Apoptosis (%) Necrosis.
CC1(C)CC[C@]2(C(=O)OCCCCCC[N+]3(C)CCCCC3)CC[C@]3(C)C(=CCC4[C@@]5(C)CC[C@H](O)C(C)(C)C5CC[C@]43C)C2C1 (stereo partly drawn) [12b]	1.9
C=C(C)[C@@H]1CC[C@]2(C(=O)[O-])CC[C@]3(C)[C@H](CC[C@@H]4[C@@]5(C)CC[C@H](O)C(C)(C)[C@@H]5CC[C@]43C)[C@@H]12.CCn1cc[n+](C)c1 [17a]	3.30

We next turn to a different compound, shown below.
Query block: Suppose we examine the compound CC1(C)CC[C@]2(C(=O)OCCCCCC[n+]3ccccc3)CC[C@]3(C)C(=CCC4[C@@]5(C)CC[C@H](O)C(C)(C)C5CC[C@]43C)C2C1 (stereo partly drawn) [12a] ; what Apoptosis (%) Necrosis value has been reported?
Result block: 65.18

---

- Test system: K562
- Experimental protocol: In vitro cytotoxicity, IC50 by flow cytometry (Guava ViaCount)
- Assay type: cell-based
- Experimental setup: Homo sapiens, K562, K562 cells
IC50 by entry:
Unit µM implied. Number only.

Query block: Give IC50 (K562) of the following molecule: CC1(C)CC[C@]2(C(=O)OCCCCCC[N+](C)(C)CCO)CC[C@]3(C)C(=CCC4[C@@]5(C)CC[C@H](O)C(C)(C)C5CC[C@]43C)C2C1 (stereo partly drawn) [12f]
Result block: 0.049

Query block: Give IC50 (K562) of the following molecule: C=C(C)[C@@H]1CC[C@]2(C(=O)OCCCCCCn3cc[n+](C)c3)CC[C@]3(C)C(CCC4[C@@]5(C)CC[C@H](O)C(C)(C)C5CC[C@]43C)C12 (stereo partly drawn) [11c]
Result block: 0.021

Query block: Give IC50 (K562) of the following molecule: C[C@@H]1CC[C@]2(C(=O)OCCCCCCn3cc[n+](C)c3)CC[C@]3(C)C(=CCC4[C@@]5(C)CC[C@H](O)C(C)(C)C5CC[C@]43C)C2[C@H]1C (stereo partly drawn) [10c]
Result block: 0.007

Query block: Give IC50 (K562) of the following molecule: C[n+]1ccn(CCOC(=O)[C@]23CCC(C)(C)CC2C2=CCC4[C@@]5(C)CC[C@H](O)C(C)(C)C5CC[C@@]4(C)[C@]2(C)CC3)c1 (stereo partly drawn)
Result block: 0.078

Query block: Give IC50 (K562) of the following molecule: CC[N+](CC)(CC)CCCCCCOC(=O)[C@]12CCC(C)(C)CC1C1=CCC3[C@@]4(C)CC[C@H](O)C(C)(C)C4CC[C@@]3(C)[C@]1(C)CC2 (stereo partly drawn) [12e]
Result block: 0.013

---

Apoptosis (%) Necrosis by entry:
- Tested on: Jurkat cells
- Experimental protocol: Apoptosis/necrosis induction (Annexin V Alexa Fluor488, 7AAD staining)
- Type: cell-based
- Experimental setup: compound at IC50 concentration, incubation 2 h
Unit % implied. Number only.

Here is how some compounds turned out for Apoptosis (%) Necrosis.
C[n+]1ccn(CCOC(=O)[C@]23CCC(C)(C)CC2C2=CCC4[C@@]5(C)CC[C@H](O)C(C)(C)C5CC[C@@]4(C)[C@]2(C)CC3)c1 (stereo partly drawn) [9a]	1.96
CC1(C)CC[C@]2(C(=O)OCCCCCC[N+]3(C)CCOCC3)CC[C@]3(C)C(=CCC4[C@@]5(C)CC[C@H](O)C(C)(C)C5CC[C@]43C)C2C1 (stereo partly drawn) [12d]	22.63

We next turn to a different compound, shown below.
Query block: Give Apoptosis (%) Necrosis (Jurkat cells) of the following compound: C=C(C)[C@@H]1CC[C@]2(C(=O)OCCCCCCn3cc[n+](C)c3)CC[C@]3(C)C(CCC4[C@@]5(C)CC[C@H](O)C(C)(C)C5CC[C@]43C)C12 (stereo partly drawn) [11c]
Result block: 4.37
